- Test system: K562 CRISPRi cells
- experiment: Perturb-seq pooled growth measurement (sgRNA counts, growth phenotype γ, relative activity)
- Assay type: cell-based, human
- condition notes: γ relative to perfectly matched sgRNA (_00) of the same gene, day 10
# key: entry, value: relative_activity_day10

// below: answered substances
# substance, relative_activity_day10
data = [
    ("GINS1_ −_25388381.23-P1P2_00 (guide GGACTAGAACGAAAGGAGTG; listed as DNA, chemistry not fully specified)", 1),
    ("RPS14_ + _149829238.23-P1P2_13 (guide GAGGCCCGGGCGCGACAGTC; listed as DNA, chemistry not fully specified)", 0.3122),
    ("EIF2S1_ −_67827080.23-P1P2_02 (guide GAGCGCAGCGCACGCTGAGG; listed as DNA, chemistry not fully specified)", 0.8838),
    ("DBR1_ + _137893744.23-P1P2_07 (guide GTTTGCAGGGGTCTACACCC; listed as DNA, chemistry not fully specified)", 0.9563),
    ("POLR2H_ + _184081251.23-P1P2_11 (guide GGGGCCACGAGAGCAGCGGA; listed as DNA, chemistry not fully specified)", 0.8554),
]

Query block: Recorded relative_activity_day10 of BCR_ + _23523092.23-P1P2_00 (guide GCGCGCGGGGCCCGTCTCAG; listed as DNA, chemistry not fully specified) , please.
Result block: 1

Query block: Param item: RPS18_ + _33239917.23-P1P2_02 (guide GCTGGGATGCCGCTGGATCA; listed as DNA, chemistry not fully specified)
Result block: 0.6345
